- System: L1210 leukemia ip in BDF1 mice, survival T/C
- Protocol details: NCI In Vivo Anticancer Drug Screen. Data for tumor model L1210 Leukemia (intraperitoneal) in B6D2F1 (BDF1) mice
- Stated conditions: endpoint: mean survival time; dose: 50.0 mg/kg/injection; schedule: Q01DX001 (ip); vehicle: Klucel (hydroxypropylcellulose) (HPC); higher = longer survival
Inconclusive results and toxic doses are left out.
Readout name: T/C

L1210 leukemia ip in BDF1 mice, survival T/C / T/C / Cc1nc(N)[nH]c(=O)c1CCCN=Cc1cccc([N+](=O)[O-])c1 : value?
97 % of control

Also NC(=O)C(F)(F)C(F)(F)C(F)(F)F , if possible.
97 % of control

Again, but for N#CCc1nn(-c2ccccc2)c(N)c1C#N
100 % of control

Follow-up item: Cc1c(N)nc(=S)[nH]c1C(=O)O
95 % of control

----------
- Tested on: L1210 leukemia ip in BDF1 mice, survival T/C
- Protocol details: NCI In Vivo Anticancer Drug Screen. Data for tumor model L1210 Leukemia (intraperitoneal) in B6D2F1 (BDF1) mice
- Stated conditions: endpoint: mean survival time; dose: 200.0 mg/kg/injection; schedule: Q04DX003 (ip); vehicle: Klucel (hydroxypropylcellulose) (HPC); higher = longer survival
Toxic doses and inconclusive results are not listed.
Readout name: T/C

What value of measured T/C is listed for CC(C)(C)C1(O)CCCCC1 ?
100 % of control

# iterate: c1ccc(CC2NCCc3c2[nH]c2ccccc32)cc1 (stereo not drawn)
97 % of control

Then what about the compound COCC(=O)OCCCCCOC(=O)COC ?
96 % of control

Repeat with CC1=CC2=NC(=O)C(c3ccccc3)C(=O)N2C=C1 (stereo not drawn)
103 % of control

Another: NC(=O)c1ccc[n+]([O-])c1
100 % of control

Similarly, Nc1ccc(/C=C/c2ccc(N)cc2)cc1 ?
94 % of control

Then this compound: Clc1cc(Cl)c(/C=C/c2c(Cl)cc(Cl)cc2Cl)c(Cl)c1
93 % of control

Now the compound BrC1C2CCC(CC2)C1Br (stereo not drawn)
100 % of control

Repeat for the following compound: COC(=O)C1C(=O)C(C(=O)OC)C2C(C(=O)OC)C(=O)C(C(=O)OC)C12 (stereo not drawn)
96 % of control

Also, O=C(O)CCc1c2ccc(=O)cc-2oc2cc(O)ccc12 please.
91 % of control

Next record, please: CNC(=O)Nc1ccc(OC)cc1OC
111 % of control

Further, for COC1OC(C)C(NC(C)=O)C(OCc2ccccc2)C1OCc1ccccc1 (stereo not drawn) ?
95 % of control

What do we get for Cc1ccc(/C=C\C(=O)c2ccccc2)cc1 ?
96 % of control

----------
- Tested on: L1210 leukemia ip in BDF1 mice, survival T/C
- Protocol details: NCI In Vivo Anticancer Drug Screen. Data for tumor model L1210 Leukemia (intraperitoneal) in B6D2F1 (BDF1) mice
- Stated conditions: endpoint: mean survival time; dose: 100.0 mg/kg/injection; schedule: Q01DX009 (ip); vehicle: water
Inconclusive results and toxic doses are left out. No stated cut-off is given here; in the data, active means T/C of 150% or more; inactive means T/C below 125%.
Form entry, call: pick from active, inactive

Name the outcome recorded for CC(C)[C@](O)(C(=O)OCC1=CC[N+]2([O-])CC[C@@H](O)[C@@H]12)[C@H](C)O (stereo partly specified) in the assay.
inactive

Another compound: NNC(=O)c1ccc(S(N)(=O)=O)cc1
active

Further, for Cc1ccc(S(=O)(=O)OCCN(CCOS(=O)(=O)c2ccc(C)cc2)c2cc(OCc3ccccc3)cc(OCc3ccccc3)c2)cc1 ?
inactive

Try the compound CC(C)CC(CC(C)C)NCC(C)OC(=O)c1ccc([N+](=O)[O-])cc1 (stereo unspecified)
inactive

Repeat with Nc1ccn(CC(=O)c2ccc(Cl)s2)c(=O)n1
inactive

// next record CCSc1ncc(C)c(Cl)n1
inactive

----------
So I've got a bunch of compounds here, and I need their T/C values.
- Tested on: L1210 leukemia ip in BDF1 mice, survival T/C
- Protocol details: NCI In Vivo Anticancer Drug Screen. Data for tumor model L1210 Leukemia (intraperitoneal) in B6D2F1 (BDF1) mice
- Stated conditions: endpoint: mean survival time; dose: 100.0 mg/kg/injection; schedule: Q04DX002 (ip); vehicle: saline with Tween-80; higher = longer survival
Toxic doses and inconclusive results are not listed.

Lookup: T/C / L1210 leukemia ip in BDF1 mice, survival T/C / O/N=C/c1cccc(CC(O)(C(F)(F)F)C(F)(F)F)n1
88 % of control

Repeat with CCCCOC1=CC2C(=CCC3C2(C)C(=O)CC2(C)C(C(C)(O)C(=O)/C=C/C(C)(C)O)C(O)CC32C)C(C)(C)C1=O (stereo not drawn)
97 % of control

Here is the next compound: CCOCC(=O)Oc1ccc(/C=N/NC(N)=S)nc1
116 % of control

Another compound to check: Cc1c([N+](=O)[O-])cc(C(C)(C)C)c(OS(C)(=O)=O)c1[N+](=O)[O-]
96 % of control

Also check Brc1cccc(CCOCc2ccccc2)c1
103 % of control

Can you handle CC(C)(C)NC#SNC(C)(C)C next?
100 % of control

Query CCOC(=O)C(CCC(C)C)C(C)=O (stereo not drawn) next
101 % of control

Next compound up: [Cl][Sn]([c]1cccc2ccccc12)([c]1cccc2ccccc12)[c]1cccc2ccccc12
98 % of control

Next compound: Cn1c2c(c3ccccc31)C(=C(c1ccccc1)c1ccccc1)c1ccccc1-2
87 % of control

One more compound: O=[N+]([O-])c1ccc(/C=C/c2nnc(/C=C/c3ccc([N+](=O)[O-])cc3)o2)cc1
89 % of control

Queued: N#CC(C#N)=CN1CCOCC1
87 % of control

Follow-up entry: COc1cc2oc3cc(C)oc(=O)c3c2cc1OC
106 % of control

Another compound: Cc1csc2ncnc(Cl)c12
94 % of control

Please give the result for c1ccc(C(Nc2ccccn2)(c2ccccc2)c2ccccc2)cc1 too.
104 % of control

// next record c1ccc(Cc2[nH]c3ccccc3c2-c2ccccc2)cc1
109 % of control

Same question for S=P(S)(Oc1ccc(Cl)cc1Cl)Oc1ccc(Cl)cc1Cl.[Cd] please.
123 % of control

Ok, now CCOC(=O)/C(C#N)=C/c1cccn1Cc1ccc2ccccc2c1
101 % of control

Try this compound too: CCOP(=O)(OCC)OC(C)CC (stereo not drawn)
109 % of control

What about this compound? Cn1c(C(O)(Cc2ccccn2)Cc2ccccn2)cc2ccccc21
90 % of control

Please do the same for O=C(/C=C(\Br)c1ccccc1)c1ccccc1 as well.
91 % of control

Also NC(=O)c1c(/N=C/c2ccccc2Cl)sc2c1CCCC2 ?
91 % of control

Repeat for the following compound: O=Cc1cccs1
93 % of control

O=[N+]([O-])c1ccc(/C([O-])=C(\C(=S)Nc2ccccc2Cl)[n+]2ccccc2)cc1 , same question.
96 % of control

----------
- Test system: L1210 leukemia ip in BDF1 mice, survival T/C
- Protocol details: NCI In Vivo Anticancer Drug Screen. Data for tumor model L1210 Leukemia (intraperitoneal) in B6D2F1 (BDF1) mice
- Stated conditions: endpoint: mean survival time; dose: 75.0 mg/kg/injection; schedule: Q01DX001 (ip); vehicle: carboxymethylcellulose (CMC); higher = longer survival
Toxic doses and inconclusive results are not listed.
Readout name: T/C

I'm curious: which T/C was measured for O=C(O)c1cccc2c1C(=O)c1cc(Cl)ccc1-2 tested on L1210 leukemia ip in BDF1 mice, survival T/C?
96 % of control

Also COc1cc2c(cc1NC(=O)C(F)(F)F)-c1ccc(NC(=O)C(F)(F)F)cc1C2 ?
88 % of control

Next entry: O=NN(CCCl)C(=O)Nc1cccc(O)c1
118 % of control

// query: CC1(C)S[C@@H]2[C@H](NC=O)C(=O)N2[C@H]1C(=O)OCc1ccccc1
90 % of control

Another compound: O=c1c(O)c(O)c1=O
89 % of control

# iterate: O=C(O)c1cc(Cl)cc2c1-c1ccc(Cl)cc1C2Br (stereo not drawn)
98 % of control

Now consider c1ccc(-c2c[nH]c(-c3ccccc3)c2-c2ccccc2)cc1 and answer again.
93 % of control

Now the same for CN(C)/C(=C/c1ccccc1)CS(=O)(=O)N(C)C
106 % of control

----------
- Test system: L1210 leukemia ip in BDF1 mice, survival T/C
- Protocol details: NCI In Vivo Anticancer Drug Screen. Data for tumor model L1210 Leukemia (intraperitoneal) in B6D2F1 (BDF1) mice
- Stated conditions: endpoint: mean survival time; dose: 25.0 mg/kg/injection; schedule: Q01DX009 (ip); vehicle: saline; higher = longer survival
Inconclusive results and toxic doses are left out.
Readout name: T/C

Consider the molecule shown here: CS(=O)(=O)OCOS(C)(=O)=O What is its recorded T/C?
100 % of control

Repeat with OCc1ccn2c1[C@@H](O)CC2
110 % of control

Also O=C(/C=N/O)/C=N/O (tested in a mixture with another compound) , if possible.
96 % of control

Follow-up item: CCCCC(CCN(C)C)(CNC(=O)CN(CC)CC)c1cccc2ccccc12 (configuration not stated)
91 % of control

Next entry: CN(C)CCN=C(Nc1ccccn1)Nc1ccccn1
110 % of control

Same question for O=C(Nc1ccc([N+](=O)[O-])cc1)Nc1ccc([N+](=O)[O-])c(C(F)(F)F)c1 please.
90 % of control

Try the molecule CC(/C=C/C(O)=C1/C(=O)CNC1=O)=C\[C@@H](C)[C@H]1O[C@@]2(C)O[C@H](C(=O)[C@@H]3O[C@@]32C)[C@@H]1C
94 % of control

Please answer likewise for CCNC1C2CCC(C2)C1c1ccccc1 (configuration not stated)
93 % of control

Can you handle O=C(NCc1cnccn1)Nc1ccccc1 next?
101 % of control

// repeat for C[Se]c1ncnc2c1c(C#N)cn2C1OC(CO)C(O)C1O (configuration not stated) and report
124 % of control

Repeat for the following molecule: Cc1c[n+]([O-])ccc1[N+](=O)[O-]
90 % of control

Let us now turn to Nc1nc(=S)c2ncn(C3CC(O)C(CO)O3)c2[nH]1 (configuration not stated)
94 % of control

Queued: CN(C)CNC=O
86 % of control

Input CCOC(=O)C(C)NC(=O)C(CSC(c1ccccc1)(c1ccccc1)c1ccccc1)NC(c1ccccc1)(c1ccccc1)c1ccccc1 (configuration not stated)
98 % of control

Same read-out for CCN(CC)Cc1cc(Nc2c(C)cnc3cc(Cl)ccc23)ccc1O ?
94 % of control

Next up: CCCCCNC(C)C(=O)c1ccccc1 (configuration not stated)
92 % of control

Also need N=C(N)SCc1ccc(C(=O)Oc2ccc([N+](=O)[O-])cc2)cc1 , thanks.
97 % of control
